# target.system: BTK C481S protein (Homo sapiens (Human), UniProt Q06187, C481S)
# Sequence (Q06187 2-659 C481S): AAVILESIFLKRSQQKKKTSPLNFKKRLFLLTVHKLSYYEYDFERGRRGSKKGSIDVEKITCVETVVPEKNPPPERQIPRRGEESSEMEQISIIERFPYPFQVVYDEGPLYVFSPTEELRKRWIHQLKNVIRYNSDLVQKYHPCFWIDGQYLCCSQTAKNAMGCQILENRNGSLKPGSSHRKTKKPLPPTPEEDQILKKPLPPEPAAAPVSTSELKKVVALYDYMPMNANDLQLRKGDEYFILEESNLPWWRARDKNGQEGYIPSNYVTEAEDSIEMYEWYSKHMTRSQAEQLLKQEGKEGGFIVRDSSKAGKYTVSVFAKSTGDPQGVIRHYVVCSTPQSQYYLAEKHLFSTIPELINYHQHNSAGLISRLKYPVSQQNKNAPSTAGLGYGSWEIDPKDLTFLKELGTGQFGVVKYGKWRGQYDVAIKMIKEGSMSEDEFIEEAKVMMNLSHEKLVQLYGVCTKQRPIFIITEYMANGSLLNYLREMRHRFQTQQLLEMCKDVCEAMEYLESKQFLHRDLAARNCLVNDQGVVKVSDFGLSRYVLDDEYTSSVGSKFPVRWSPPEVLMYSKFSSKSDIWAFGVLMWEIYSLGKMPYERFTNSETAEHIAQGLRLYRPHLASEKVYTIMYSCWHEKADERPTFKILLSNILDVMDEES
# experiment.summary: BTK C481S HTRF displacement assay
# assay.setup: 1-hour incubation
# Protocol: The ability of a compound to bind BTK wildtype or BTK C481S proteins was measured using an HTRF displacement assay. […] Test compounds were prepared as 10 mM stock solutions in DMSO (Fisher cat #BP231-100). […] After a 1-hour incubation at room temperature, the HTRF signal was measured using SPARK plate reader (Tecan) using the TR fluorescence mode. The HTRF ratio is calculated for DMSO, no protein control and compound samples using the following equation: HTRF ratio=Emmision665/Emmision620×10^4. […]
value.type: IC50

[
  {
    "compound": "COc1ccc(F)cc1C(=O)NCc1ccc(-c2nn(CC3CN(C(=O)n4cncn4)C3)c(N)c2C(N)=O)cc1",
    "value.type": "IC50",
    "experimental.result": "≤ 1000 nM"
  },
  {
    "compound": "COc1ccc(F)cc1C(=O)NCc1ccc(-c2nn(C(C)CC3CCCN3C(=O)n3cncn3)c3ncnc(N)c23)cc1 (stereo not drawn) [Compound 166]",
    "value.type": "IC50",
    "experimental.result": "≤ 1000 nM"
  },
  {
    "compound": "NC(=O)c1c(-c2ccc(Oc3ccccc3)cc2)nn2c1NCC1CN(C(=O)n3cncn3)CC12 (stereo not drawn)",
    "value.type": "IC50",
    "experimental.result": "> 1000 nM"
  },
  {
    "compound": "COc1ccc(F)cc1C(=O)NCc1ccc(-c2nn([C@@H]3CCC[C@@H](N(C)C(=O)n4cncn4)C3)c(N)c2C(N)=O)cc1 (relative stereo)",
    "value.type": "IC50",
    "experimental.result": "≤ 1000 nM"
  },
  {
    "compound": "Cc1[nH]c2c(C(N)=O)cc(F)c(N3CCC4(CCN4C(=O)n4cncn4)C3)c2c1C (stereo not drawn)",
    "value.type": "IC50",
    "experimental.result": "≤ 1000 nM"
  },
  {
    "compound": "COc1ccc(F)cc1C(=O)NCc1ccc(-c2nn(CCN(C(=O)n3cncn3)C3CC3)c3ncnc(N)c23)cc1",
    "value.type": "IC50",
    "experimental.result": "> 1000 nM"
  },
  {
    "compound": "COc1ccc(F)cc1C(=O)NCc1ccc(-c2nn(CC3CN(C(C)=O)CCN3C(=O)n3cncn3)c3ncnc(N)c23)cc1 (stereo not drawn)",
    "value.type": "IC50",
    "experimental.result": "> 1000 nM"
  },
  {
    "compound": "COc1ccc(F)cc1C(=O)NCc1ccc(-c2nn(C[C@@H]3C[C@H](F)CN3C(=O)n3cncn3)c3ncnc(N)c23)cc1",
    "value.type": "IC50",
    "experimental.result": "≤ 1000 nM"
  },
  {
    "compound": "CN(CCC1CCNc2c(-c3ccc(Oc4ccccc4)cc3)c(C(N)=O)nn21)C(=O)n1cncn1 (stereo not drawn)",
    "value.type": "IC50",
    "experimental.result": "> 1000 nM"
  },
  {
    "compound": "COc1ccc(F)cc1C(=O)NCc1ccc(-c2nn(C(C)C(C)N(C)C(=O)n3cnnc3)c(N)c2C(N)=O)cc1 (stereo not drawn)",
    "value.type": "IC50",
    "experimental.result": "≤ 1000 nM"
  },
  {
    "compound": "COc1ccc(F)cc1C(=O)NCc1ccc(-c2nn(CC3CCC(O)CN3C(=O)n3cncn3)c3ncnc(N)c23)cc1 (stereo not drawn)",
    "value.type": "IC50",
    "experimental.result": "≤ 1000 nM"
  },
  {
    "compound": "COc1ccc(F)cc1C(=O)NCc1ccc(-c2nn(C[C@@H]3CCCN3C(=O)n3cncn3)c3ncnc(N)c23)cc1",
    "value.type": "IC50",
    "experimental.result": "≤ 1000 nM"
  },
  {
    "compound": "COc1ccc(F)cc1C(=O)NCc1ccc(-c2nn(-c3ccccc3CN(C)C(=O)n3cncn3)c3ncnc(N)c23)cc1",
    "value.type": "IC50",
    "experimental.result": "> 1000 nM"
  },
  {
    "compound": "COCCC(Cn1nc(-c2ccc(CNC(=O)c3cc(F)ccc3OC)cc2)c2c(N)ncnc21)N(C)C(=O)n1cncn1 (stereo not drawn)",
    "value.type": "IC50",
    "experimental.result": "> 1000 nM"
  },
  {
    "compound": "NC(=O)c1c(-c2ccc(Oc3ccccc3)cc2)nn(C2CCC3(C2)CN(C(=O)n2cncn2)C3)c1N (stereo not drawn)",
    "value.type": "IC50",
    "experimental.result": "≤ 1000 nM"
  }
]
